- target.or.system: HLA-A*02:01
- experiment.summary: IEDB peptide-MHC binding, cellular MHC/competitive/fluorescence; bounds were set here for any values at or beyond the usual limits of such assays
- experimental.conditions: source organism: Vaccinia virus WR
The reader will find reported IC50 values listed item by item below.

Recorded IC50, per entry:
SITPNNLNKI ≥ 70 µM
PVVYHDDDNT 11.7 µM
DAFSREYSMT ≥ 70 µM
DIYDAVRAFL 5.42 µM
DIMLPESDL 12.9 µM
DIVSKLTFL 7.81 µM
PMIIGEPIIV 26.3 µM
AINKCVDIFT 15.9 µM
GIKEDETVST 41.7 µM
IVFGIYKDNL 5.46 µM

Ask: Output reported IC50 of the sequence MQLKIDKLT on HLA-A*02:01.
Reply: 26.6 µM

###

- target.or.system: HLA-A*02:03
- experiment.summary: IEDB peptide-MHC binding, cellular MHC/competitive/fluorescence; bounds were set here for any values at or beyond the usual limits of such assays
- experimental.conditions: source organism: Vaccinia virus WR
Flag rule - IC50 less than 10 µM flags label 1; the remaining entries get label 0.

NLCKYLRGHT label 1
DISVNASKTI label 0
IVSRSSRGV label 0
EIVKNIREGT label 1
KTNTKHCPKI label 0

Ask: hey, is IC50 for PVETLFGSYI lower than 10 µM or not?
Reply: label 0

Ask: Please state whether IC50 is below 10 µM for TVDVRNIVT
Reply: label 0

Ask: Say whether its IC50 is strictly beneath 10 µM. Entry: YTLIYRQLT
Reply: label 1

Ask: Say whether its IC50 is strictly beneath 10 µM. Entry: IAVFDSKLI
Reply: label 0

Ask: Hi there! Is IC50 for STVDVRNIVT below 10 µM, do you know?
Reply: label 0

Ask: Below 10 µM on IC50? Entry PTEMVDVSMM
Reply: label 0

Ask: Is IC50 of GARVIWMDA strictly below 10 µM?
Reply: label 1

Ask: Check if IC50 falls below 10 µM for HAKYMVTDKT .
Reply: label 0

Ask: In the record for PVDLVKSSFV , is IC50 less than 10 µM?
Reply: label 1

Ask: Consider ELVMDKNHAI . Does its IC50 lie strictly below 10 µM?
Reply: label 0

Ask: I'd appreciate it if you could check whether DVQRTRCKYV has IC50 smaller than 10 µM.
Reply: label 1

Ask: Take the sequence NVQSLIKFI and say whether its IC50 is less than 10 µM.
Reply: label 1

Ask: Determine if IILFQNNDI shows IC50 strictly lower than 10 µM.
Reply: label 0

Ask: Check if IC50 falls below 10 µM for SILNNPVDT .
Reply: label 0

###

- target.or.system: HLA-A*02:01
- experiment.summary: IEDB peptide-MHC binding, purified MHC/competitive/radioactivity; bounds were set here for any values at or beyond the usual limits of such assays
- experimental.conditions: source organism: Vaccinia virus WR
endpoint: IC50 (nM)
// units = nM; emit number, no label

Completed entries (count: 6):
SIISLFYTFA 205
RVFNEYGFVL 535
FLSYISDTV 0.54
GLADAFILL 13
SIPISELSRL 2260
IMSIGFEARI 1590

Ask: State its IC50: FIRYGDASLM
Reply: 2360

Ask: Output IC50 of SLYDQKEINA
Reply: 267

Ask: Determine its reported IC50: SILSLETVKM
Reply: 1310

Ask: Indicate its recorded IC50; the sequence in question is YANNDKFRL
Reply: 587

Ask: Note down IC50 recorded for MMMMKWIISI
Reply: 10

Ask: Input KLLNMRDLIV , output reported IC50.
Reply: 1.1

Ask: Supply measured IC50 of MVISLLSMI in your reply.
Reply: 155

Ask: For the sequence KLNKMTVEL , give its measured IC50 value.
Reply: 6.5

Ask: State its IC50: GTINRILVIT
Reply: 1230
